Tested System: HLA-A*68:02
Test Summary: IEDB peptide-MHC binding, purified MHC/direct/fluorescence; filed as Kd, often an IC50 or EC50 that approximates it; bounds were set here for any values at or beyond the usual limits of such assays
Measurement Context: source organism: Cowpox virus
Recorded Metric: Kd

-- ask Answer with reported Kd of `YHRFGLYRL`
-- reply ≥ 20 µM

====

Tested System: HLA-B*40:02
Test Summary: IEDB peptide-MHC binding, purified MHC/competitive/radioactivity; filed as Kd, often an IC50 or EC50 that approximates it; bounds were set here for any values at or beyond the usual limits of such assays
Measurement Context: source organism: Mammarenavirus juninense
Recorded Metric: pKd
Would you please state pKd, meaning minus log10 of the concentration in mol/L, as a bare number?

-- ask Find the measured pKd of `HDLPLLCTL` and report it.
-- reply 8.07
